Assay info: Cytotoxicity against rat PC12 cells assessed as cell proliferation at 10 uM by MTT assay relative to control
Format: cell-based, PC-12
Run conditions: read-out: Activity
Readout type: viability at 10 µM

Compound	Readout type	Measurement
Cc1c(N2CCN(C(=O)/C=C/c3ccccc3)CC2)c(=O)oc2cc(O)cc(O)c12	viability at 10 µM	104%
Cc1c(N2CCN(C)CC2)c(=O)oc2cc(O)cc(OCCN3CCCCC3)c12	viability at 10 µM	144%
Cc1c(N2CCN(c3cccc(C(F)(F)F)c3)CC2)c(=O)oc2cc(O)cc(O)c12	viability at 10 µM	103%
Cc1c(N2CCN(C)CC2)c(=O)oc2cc(O)cc(OCCN3CCCC3)c12	viability at 10 µM	135%
Cc1c(N2CCN(C(=O)Nc3ccc(OC(F)(F)F)cc3)CC2)c(=O)oc2cc(O)cc(O)c12	viability at 10 µM	99.5%
Cc1c(N2CCN(C)CC2)c(=O)oc2cc(O)cc(OCc3ccccn3)c12	viability at 10 µM	116%
Cc1c(N2CCN(C(=S)Nc3cccc(F)c3)CC2)c(=O)oc2cc(O)cc(O)c12	viability at 10 µM	101%
Cc1ccc(COc2cc(O)cc3oc(=O)c(N4CCN(C)CC4)c(C)c23)c(C)c1	viability at 10 µM	51.6%
CC(=O)Oc1cc(OC(C)=O)c2c(C)c(N3CCN(C)CC3)c(=O)oc2c1	viability at 10 µM	102%
Cc1c(N2CCN(C)CC2)c(=O)oc2cc(N(C)C)ccc12	viability at 10 µM	97.8%
Cc1c(N2CCN(C(=O)c3ccccc3)CC2)c(=O)oc2cc(O)cc(O)c12	viability at 10 µM	100%
CCC(CC)CN1CCN(c2c(C)c3c(O)cc(O)cc3oc2=O)CC1	viability at 10 µM	102%
Cc1c(CCC(=O)N2CCN(C)CC2)c(=O)oc2cc(O)cc(O)c12	viability at 10 µM	97.5%
Cc1c(N2CCN(C(=O)Nc3ccc(F)cc3)CC2)c(=O)oc2cc(O)cc(O)c12	viability at 10 µM	104%
Cc1c(N2CCN(C)CC2)c(=O)oc2cc(O)cc(OCCNC(=O)OC(C)(C)C)c12	viability at 10 µM	132%
COc1cc(OC)c2c(C)c(N3CCN(C)CC3)c(=O)oc2c1	viability at 10 µM	100%
Cc1c(N2CCN(C)CC2)c(=O)oc2cc(O)cc(OCCNS(C)(=O)=O)c12	viability at 10 µM	103%
Cc1c(N2CCN(C)CC2)c(=O)oc2cc(O)cc(OC3CCN(C(=O)OC(C)(C)C)CC3)c12	viability at 10 µM	137%
CC(=O)Nc1ccc(S(=O)(=O)N2CCN(c3c(C)c4c(O)cc(O)cc4oc3=O)CC2)cc1	viability at 10 µM	98.1%
Cc1c(N2CCN(C)CC2)c(=O)oc2cc(O)cc(OC3CCOC3)c12 (stereo unspecified)	viability at 10 µM	107%
Cc1ccc(S(=O)(=O)NCCOc2cc(O)cc3oc(=O)c(N4CCN(C)CC4)c(C)c23)cc1	viability at 10 µM	140%
